FYI, the data here is from patent US12384801B2.

assayed.system: human STING (WT) (Homo sapiens (Human), UniProt Q86WV6, H232R)
Sequence (Q86WV6 149-345 H232R): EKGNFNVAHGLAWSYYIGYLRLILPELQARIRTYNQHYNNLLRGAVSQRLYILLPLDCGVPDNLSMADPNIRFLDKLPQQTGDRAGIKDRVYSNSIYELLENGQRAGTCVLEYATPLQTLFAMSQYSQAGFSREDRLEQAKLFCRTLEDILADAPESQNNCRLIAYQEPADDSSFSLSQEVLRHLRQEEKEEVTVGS
assay.remarks: Differential scanning fluorimetry (DSF), huSTING (WT)
Format: binding
recorded.conditions: compound 100 μM, 2 μM protein, Tm with ligand minus Tm of protein alone (1% DMSO)
This listing pairs molecules with measured DSF huSTING (WT) ΔTm.

| molecule | DSF huSTING (WT) ΔTm [°C] |
| --- | --- |
| Cc1cccc2sc(C(=O)O)c(-c3nc4cc(C(N)=O)ccc4n3CCn3c(-c4c(C(=O)O)sc5cccc(C)c45)nc4cc(C(N)=O)ccc43)c12 (single isomer, unassigned) [Example 15.2] | 20.41 |
| NC(=O)c1ccc2c(c1)nc(-c1c(C(=O)O)sc3cccc(Cl)c13)n2CCCn1c(-c2c(C(=O)O)sc3cccc(Cl)c23)nc2cc(C(N)=O)ccc21 (single isomer, unassigned) [Example 4.1] | −0.82 |
| NC(=O)c1ccc2c(c1)nc(-c1c(C(=O)O)sc3cccc(Cl)c13)n2CCCn1c(-c2c(C(=O)O)sc3cccc(Cl)c23)nc2cc(C(N)=O)ccc21 (single isomer, unassigned) [Example 4.2] | −0.76 |
| NC(=O)c1ccc2c(c1)nc(-c1c(C(=O)O)sc3c(F)ccc(Br)c13)n2CCn1c(-c2c(C(=O)O)sc3c(F)ccc(Br)c23)nc2cc(C(N)=O)ccc21 (single isomer, unassigned) [Example 20.2] | −4.12 |
| NC(=O)c1ccc2c(c1)nc(-c1c(C(=O)O)sc3cccc(Br)c13)n2CCn1c(-c2c(C(=O)O)sc3cccc(Br)c23)nc2cc(C(N)=O)ccc21 (single isomer, unassigned) [Example 11.1] | 17.83 |
| COc1cccc2sc(C(=O)O)c(-c3nc4cc(C(N)=O)ccc4n3CCn3c(-c4c(C(=O)O)sc5cccc(OC)c45)nc4cc(C(N)=O)ccc43)c12 (single isomer, unassigned) [Example 5.1] | 6.4 |

====

assayed.system: human STING (WT) (Homo sapiens (Human), UniProt Q86WV6, H232R)
assay.remarks: Differential scanning fluorimetry (DSF), huSTING (WT)
Type: binding
recorded.conditions: compound 100 μM, 2 μM protein, Tm with ligand minus Tm of protein alone (1% DMSO)
endpoint.name: ΔTm at 100 µM

| compound | experimental.result |
| --- | --- |
| COc1nccc2sc(C(=O)O)c(-c3nc4cc(C(N)=O)ccc4n3CCn3c(-c4c(C(=O)O)sc5ccnc(OC)c45)nc4cc(C(N)=O)ccc43)c12 | 0.6 °C |
| NC(=O)c1ccc2c(c1)nc(-c1c(C(=O)O)sc3ccccc13)n2CCn1c(-c2c(C(=O)O)sc3ccccc23)nc2cc(C(N)=O)ccc21 | 2.36 °C |
| CCOc1cccc2sc(C(=O)O)c(-c3nc4cc(C(N)=O)ccc4n3CCn3c(-c4c(C(=O)O)sc5cccc(OCC)c45)nc4cc(C(N)=O)ccc43)c12 | -0.39 °C |
| N#Cc1cccc2sc(C(=O)O)c(-c3nc4cc(C(N)=O)ccc4n3CCn3c(-c4c(C(=O)O)sc5cccc(C#N)c45)nc4cc(C(N)=O)ccc43)c12 | -2.58 °C |
| COc1c(C(N)=O)ccc2c1nc(-c1c(C(=O)O)sc3cccc(Cl)c13)n2CCn1c(-c2c(C(=O)O)sc3cccc(Cl)c23)nc2c(OC)c(C(N)=O)ccc21 (single isomer, unassigned) | 37.7 °C |
| CCOC(=O)c1sc2cccc(Cl)c2c1-c1nc2c(OC)c(C(N)=O)ccc2n1CCn1c(-c2c(C(=O)OCC)sc3cccc(Cl)c23)nc2c(OC)c(C(N)=O)ccc21 | 3.41 °C |

====

assayed.system: human STING (HAQ) (Homo sapiens (Human), UniProt Q86WV6, G230A/H232R/R293Q)
assay.remarks: Differential scanning fluorimetry (DSF), huSTING (HAQ)
Type: binding
recorded.conditions: compound 100 μM, 2 μM protein, Tm with ligand minus Tm of protein alone (1% DMSO)
endpoint.name: DSF huSTING (HAQ) ΔTm (°C)

| compound | assayed.system | endpoint.name | quantity.unit | experimental.result |
| --- | --- | --- | --- | --- |
| COc1c(C(N)=O)ccc2c1nc(-c1c(C(=O)O)sc3cccc(Cl)c13)n2CCn1c(-c2c(C(=O)O)sc3cccc(Cl)c23)nc2c(OC)c(C(N)=O)ccc21 (single isomer, unassigned) | human STING (HAQ) (Homo sapiens (Human), UniProt Q86WV6, G230A/H232R/R293Q) | DSF huSTING (HAQ) ΔTm | °C | 45.31 |
| NC(=O)c1ccc2c(c1)nc(-c1c(C(=O)O)sc3c(F)ccc(Cl)c13)n2CCn1c(-c2c(C(=O)O)sc3c(F)ccc(Cl)c23)nc2cc(C(N)=O)ccc21 (single isomer, unassigned) | human STING (HAQ) (Homo sapiens (Human), UniProt Q86WV6, G230A/H232R/R293Q) | DSF huSTING (HAQ) ΔTm | °C | 22.2 |
| Cc1cccc2sc(C(=O)O)c(-c3nc4cc(C(N)=O)ccc4n3CCn3c(-c4c(C(=O)O)sc5cccc(C)c45)nc4cc(C(N)=O)ccc43)c12 (single isomer, unassigned) | human STING (HAQ) (Homo sapiens (Human), UniProt Q86WV6, G230A/H232R/R293Q) | DSF huSTING (HAQ) ΔTm | °C | 31.87 |
| NC(=O)c1ccc2c(c1)nc(-c1c(C(=O)O)sc3cccc(Cl)c13)n2CCn1c(-c2c(C(=O)O)sc3cccc(Cl)c23)nc2cc(C(N)=O)ccc21 (single isomer, unassigned) [Example 1.1] | human STING (HAQ) (Homo sapiens (Human), UniProt Q86WV6, G230A/H232R/R293Q) | DSF huSTING (HAQ) ΔTm | °C | 31.8 |
| NC(=O)c1ccc2c(c1)nc(-c1c(C(=O)O)sc3cccc(Cl)c13)n2CCCn1c(-c2c(C(=O)O)sc3cccc(Cl)c23)nc2cc(C(N)=O)ccc21 (single isomer, unassigned) | human STING (HAQ) (Homo sapiens (Human), UniProt Q86WV6, G230A/H232R/R293Q) | DSF huSTING (HAQ) ΔTm | °C | 2.85 |

====

assayed.system: human STING (HAQ) (Homo sapiens (Human), UniProt Q86WV6, G230A/H232R/R293Q)
assay.remarks: Surface Plasmon Resonance (SPR), STING (HAQ)
recorded.conditions: read-out: SPR (HAQ) KD; biotinylated STING on streptavidin chip, 8° C.
pKd: −log10 of the molar value.
endpoint.name: pKd

| compound | experimental.result |
| --- | --- |
| Cc1cccc2sc(C(=O)O)c(-c3nc4cc(C(N)=O)ccc4n3CCn3c(-c4c(C(=O)O)sc5cccc(C)c45)nc4cc(C(N)=O)ccc43)c12 (single isomer, unassigned) | 8.30 |
| NC(=O)c1ccc2c(c1)nc(-c1c(C(=O)O)sc3cccc(Br)c13)n2CCn1c(-c2c(C(=O)O)sc3cccc(Br)c23)nc2cc(C(N)=O)ccc21 (single isomer, unassigned) | 8.79 |
| COc1cccc2sc(C(=O)O)c(-c3nc4cc(C(N)=O)ccc4n3CCn3c(-c4c(C(=O)O)sc5cccc(OC)c45)nc4cc(C(N)=O)ccc43)c12 (single isomer, unassigned) [Example 5.2] | 8.85 |
| COc1nccc2sc(C(=O)O)c(-c3nc4cc(C(N)=O)ccc4n3CCn3c(-c4c(C(=O)O)sc5ccnc(OC)c45)nc4cc(C(N)=O)ccc43)c12 | 4.55 |
| COc1cccc2sc(C(=O)O)c(-c3nc4cc(C(N)=O)ccc4n3CCn3c(-c4c(C(=O)O)sc5cccc(OC)c45)nc4cc(C(N)=O)ccc43)c12 (single isomer, unassigned) [Example 5.1] | 7.68 |
| NC(=O)c1ccc2c(c1)nc(-c1c(C(=O)O)sc3c(F)ccc(Cl)c13)n2CCn1c(-c2c(C(=O)O)sc3c(F)ccc(Cl)c23)nc2cc(C(N)=O)ccc21 (single isomer, unassigned) [Example 2.1] | 8.13 |
| CCOC(=O)c1sc2cccc(Cl)c2c1-c1nc2cc(C(N)=O)ccc2n1CCn1c(-c2c(C(=O)OCC)sc3cccc(Cl)c23)nc2cc(C(N)=O)ccc21 | 4.83 |
| NC(=O)c1ccc2c(c1)nc(-c1c(C(=O)O)sc3cccc(Cl)c13)n2CCn1c(-c2c(C(=O)O)sc3cccc(Cl)c23)nc2cc(C(N)=O)ccc21 (single isomer, unassigned) | 8.77 |

====

assayed.system: human HAQ isoform of STING (Homo sapiens (Human), UniProt Q86WV6, G230A/H232R/R293Q/R71H)
Sequence (Q86WV6 whole entry R71H/G230A/H232R/R293Q, canonical isoform): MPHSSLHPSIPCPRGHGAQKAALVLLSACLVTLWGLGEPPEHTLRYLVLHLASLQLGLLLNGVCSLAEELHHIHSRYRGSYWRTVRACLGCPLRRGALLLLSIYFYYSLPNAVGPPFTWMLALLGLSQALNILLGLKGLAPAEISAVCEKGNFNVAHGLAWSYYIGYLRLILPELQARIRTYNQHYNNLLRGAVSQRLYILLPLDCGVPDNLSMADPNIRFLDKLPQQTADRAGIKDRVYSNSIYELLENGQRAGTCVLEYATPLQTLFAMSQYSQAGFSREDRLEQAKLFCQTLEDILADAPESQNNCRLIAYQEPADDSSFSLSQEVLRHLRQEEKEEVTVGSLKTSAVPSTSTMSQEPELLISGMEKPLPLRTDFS
assay.remarks: THP-1 STING Lucia ISG reporter cell line assay
recorded.conditions: 24 h incubation, luminescence, normalized to ML RR-S2 CDA 40 μM; read-out: EC50 THP-I STING Lucia ISG cells
Recorded EC50, one value per entry.
endpoint.name: EC50 (nM)

| molecule | cmp | experimental.result |
| --- | --- | --- |
| Cc1cccc2sc(C(=O)O)c(-c3nc4cc(C(N)=O)ccc4n3CCn3c(-c4c(C(=O)O)sc5cccc(C)c45)nc4cc(C(N)=O)ccc43)c12 (single isomer, unassigned) [Example 15.1] | = | 1540 |
| NC(=O)c1ccc2c(c1)nc(-c1c(C(=O)O)sc3c(F)ccc(Cl)c13)n2CCn1c(-c2c(C(=O)O)sc3c(F)ccc(Cl)c23)nc2cc(C(N)=O)ccc21 (single isomer, unassigned) [Example 2.1] | = | 1830 |
| NC(=O)c1ccc2c(c1)nc(-c1c(C(=O)O)sc3cccc(Cl)c13)n2CCn1c(-c2c(C(=O)O)sc3cccc(Cl)c23)nc2cc(C(N)=O)ccc21 (single isomer, unassigned) [Example 1.2] | = | 14200 |
| CCOC(=O)c1sc2cccc(Br)c2c1-c1nc2cc(C(N)=O)ccc2n1CCn1c(-c2c(C(=O)OCC)sc3cccc(Br)c23)nc2cc(C(N)=O)ccc21 [Example 10] | = | 19900 |
| NC(=O)c1ccc2c(c1)nc(-c1c(C(=O)O)sc3cccc(C(F)(F)F)c13)n2CCn1c(-c2c(C(=O)O)sc3cccc(C(F)(F)F)c23)nc2cc(C(N)=O)ccc21 (single isomer, unassigned) [Example 19.2] | = | 2600 |
| CCOC(=O)c1sc2c(F)ccc(Cl)c2c1-c1nc2cc(C(N)=O)ccc2n1CCn1c(-c2c(C(=O)OCC)sc3c(F)ccc(Cl)c23)nc2cc(C(N)=O)ccc21 [Example A2] | = | 9530 |
| COc1c(C(N)=O)ccc2c1nc(-c1c(C(=O)O)sc3cccc(Cl)c13)n2CCn1c(-c2c(C(=O)O)sc3cccc(Cl)c23)nc2c(OC)c(C(N)=O)ccc21 (single isomer, unassigned) [Example 22.2] | = | 1010 |
| CCOC(=O)c1sc2cccc(C#N)c2c1-c1nc2cc(C(N)=O)ccc2n1CCn1c(-c2c(C(=O)OCC)sc3cccc(C#N)c23)nc2cc(C(N)=O)ccc21 [Example 16] | > | 40000 |
| CCOC(=O)c1sc2cccc(Cl)c2c1-c1nc2cc(C(N)=O)ccc2n1CCn1c(-c2c(C(=O)OCC)sc3cccc(Cl)c23)nc2cc(C(N)=O)ccc21 [Example A1] | = | 18400 |
| NC(=O)c1ccc2c(c1)nc(-c1c(C(=O)O)sc3c(F)ccc(Br)c13)n2CCn1c(-c2c(C(=O)O)sc3c(F)ccc(Br)c23)nc2cc(C(N)=O)ccc21 (single isomer, unassigned) [Example 20.1] | = | 1580 |
